Molecular target: M. musculus (heart) complex I (Mus musculus, UniProt P03888+Q91WD5+Q9DC70)
Sequence (Q91WD5 34-463): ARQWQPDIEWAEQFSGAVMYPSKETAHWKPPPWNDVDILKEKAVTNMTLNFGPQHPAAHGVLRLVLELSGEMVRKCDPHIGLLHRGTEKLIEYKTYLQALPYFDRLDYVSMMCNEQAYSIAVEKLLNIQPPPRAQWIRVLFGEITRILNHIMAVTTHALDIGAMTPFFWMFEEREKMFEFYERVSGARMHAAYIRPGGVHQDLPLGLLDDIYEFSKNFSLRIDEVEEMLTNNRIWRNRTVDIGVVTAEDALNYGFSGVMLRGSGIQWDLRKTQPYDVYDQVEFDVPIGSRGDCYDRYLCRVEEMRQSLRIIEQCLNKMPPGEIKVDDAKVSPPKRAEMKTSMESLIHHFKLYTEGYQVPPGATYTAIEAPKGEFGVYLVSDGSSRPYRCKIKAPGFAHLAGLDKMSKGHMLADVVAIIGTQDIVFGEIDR
Sequence (Q9DC70 36-224): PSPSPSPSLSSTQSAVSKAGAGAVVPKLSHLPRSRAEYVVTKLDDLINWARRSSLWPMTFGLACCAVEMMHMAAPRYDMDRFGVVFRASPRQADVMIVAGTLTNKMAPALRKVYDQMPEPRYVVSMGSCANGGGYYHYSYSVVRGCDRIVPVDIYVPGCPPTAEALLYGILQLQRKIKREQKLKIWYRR
Sequence (P03888 whole entry): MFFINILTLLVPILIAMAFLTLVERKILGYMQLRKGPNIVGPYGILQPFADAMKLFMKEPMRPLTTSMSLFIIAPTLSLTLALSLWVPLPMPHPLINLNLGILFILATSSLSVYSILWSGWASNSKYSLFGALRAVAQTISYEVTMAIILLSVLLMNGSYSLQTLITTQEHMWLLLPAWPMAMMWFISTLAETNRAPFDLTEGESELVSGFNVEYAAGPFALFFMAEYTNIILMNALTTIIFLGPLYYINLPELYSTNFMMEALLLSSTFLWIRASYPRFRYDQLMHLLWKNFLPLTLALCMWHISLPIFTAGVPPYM
Test: biochemical
Format: biochemical
Conditions: M. musculus; dose 15 µM; individual replicates (Rep); read-out: Complex I activity, dose-response data
reported-endpoint: activity at 15 µM

COc1cc2c(cc1OC)C(C(C)c1ccc(CC(C)C)cc1)=NCC2 (stereo not shown) [NPD10504]	37%
COc1cc2c(cc1OC)C(c1ccc(-c3ccc(Cl)c(Cl)c3)o1)=NCC2 [NPD3577]	82.8%
COc1cc2c(cc1OC)C(/C=C/c1ccc(N(C)C)cc1)=NCC2 [NPD6303]	82.4%

// activity at 15 µM value for CC(C)Cc1ccc(C(C)c2nc3ccccc3n2C)cc1 (stereo not shown) [NPD8790] : 77.5%
